Tested on: Enterococcus sp.
Test: In vitro antibacterial evaluation: minimum inhibitory concentration (MIC), broth dilution method
Assay type: cell-based
Details: Enterococcus faecalis (GC 4553); 18 hours at 35° C.
Task for the reader: assign each of the following molecules its reported MIC Enterococcus faecalis (GC 4553).
Answers are plain numbers, in µg/mL.

# Molecule, MIC Enterococcus faecalis (GC 4553), µg/mL
records = [
    ("N=C1NCC(C(O)C2NC(=O)C(Cc3ccc(OC4OC(CO)C(OC5OC6COC(Cc7ccccc7)OC6C(O)C5O)C(O)C4O)cc3)NC(=O)C(CC3CCCCC3)NC(=O)CNC(=O)C(CO)NC(=O)C(C(O)C3CNC(=N)N3C3OC(CO)C(O)C(O)C3O)NC2=O)N1 (centres unmarked)", 4),
]

For CCOc1cc(COCC2OC(OC3C(CO)OC(Oc4ccc(CC5NC(=O)C(C(C)c6ccccc6)NC(=O)CNC(=O)C(CO)NC(=O)C(C(O)C6CNC(=N)N6C6OC(CO)C(O)C(O)C6O)NC(=O)C(C(O)C6CNC(=N)N6)NC5=O)cc4)C(O)C3O)C(O)C(O)C2O)ccc1OC (centres unmarked) on Enterococcus sp., measured MIC Enterococcus faecalis (GC 4553) was 32

* * *

Tested on: Staphylococcus sp.
Experiment: In vitro antibacterial evaluation: minimum inhibitory concentration (MIC), broth dilution method
Assay type: cell-based
Settings: strain GC 4542; broth dilution, 18 hours at 35° C.
Outcome measure: MIC Staphylococcus aureus (GC 4542) (µg/mL)
One number for each entry, in µg/mL.

# Molecule, MIC Staphylococcus aureus (GC 4542) / µg/mL
data = [
    ("CC(c1ccccc1)C1NC(=O)CNC(=O)C(CO)NC(=O)C(C(O)C2CNC(=N)N2C2OC(CO)C(O)C(O)C2O)NC(=O)C(C(O)C2CNC(=N)N2)NC(=O)C(Cc2ccc(OC3OC(CO)C(OC4OC5COC(C67CC8CC(CC(C8)C6)C7)OC5C(O)C4O)C(O)C3O)cc2)NC1=O (centres unmarked)", 2),
]

We next turn to a different molecule, shown below.
So for COc1cccc(C2OC3C(OC4C(CO)OC(Oc5ccc(CC6NC(=O)C(C(C)c7ccccc7)NC(=O)CNC(=O)C(CO)NC(=O)C(C(O)C7CNC(=N)N7C7OC(CO)C(O)C(O)C7O)NC(=O)C(C(O)C7CNC(=N)N7)NC6=O)cc5)C(O)C4O)OC(CO)C(O)C3O2)c1 (single isomer, unassigned) [Example 137b] , the logged MIC Staphylococcus aureus (GC 4542) turned out to be 16

* * *

System: Staphylococcus sp.
Experiment: In vitro antibacterial evaluation: minimum inhibitory concentration (MIC), broth dilution method
Assay type: cell-based
Details: strain GC 4551; broth dilution, 18 hours at 35° C.
Task for the reader: assign each of the following compounds its reported MIC Coagulase Negative Staphylococcus (GC 4551).

Known MIC Coagulase Negative Staphylococcus (GC 4551) results, listed for orientation:
# Compound, Value reported
rows = [
    ("CC(c1ccccc1)C1NC(=O)CNC(=O)C(CO)NC(=O)C(C(O)C2CNC(=N)N2C2OC(CO)C(O)C(O)C2O)NC(=O)C(C(O)C2CNC(=N)N2)NC(=O)C(Cc2ccc(OC3OC(CO)C(OC4OC5COC(c6ccccc6)OC5C(O)C4O)C(O)C3O)cc2)NC1=O (stereo not shown)", "1 µg/mL"),
    ("CC(c1ccccc1)C1NC(=O)CNC(=O)C(CO)NC(=O)C(C(O)C2CNC(=N)N2C2OC(CO)C(O)C(O)C2O)NC(=O)C(C(O)C2CNC(=N)N2)NC(=O)C(Cc2ccc(OC3OC(COC(=O)C(c4ccccc4)c4ccccc4)C(OC4OC(CO)C(O)C(O)C4O)C(O)C3O)cc2)NC1=O (stereo not shown) [Example 96b]", "2 µg/mL"),
    ("CC(C)CC1OCC2OC(OC3C(CO)OC(Oc4ccc(CC5NC(=O)C(C(C)c6ccccc6)NC(=O)CNC(=O)C(CO)NC(=O)C(C(O)C6CNC(=N)N6C6OC(CO)C(O)C(O)C6O)NC(=O)C(C(O)C6CNC(=N)N6)NC5=O)cc4)C(O)C3O)C(O)C(O)C2O1 (stereo not shown)", "1 µg/mL"),
    ("CC(=O)n1cc(C2OCC3OC(OC4C(CO)OC(Oc5ccc(CC6NC(=O)C(C(C)c7ccccc7)NC(=O)CNC(=O)C(CO)NC(=O)C(C(O)C7CNC(=N)N7C7OC(CO)C(O)C(O)C7O)NC(=O)C(C(O)C7CNC(=N)N7)NC6=O)cc5)C(O)C4O)C(O)C(O)C3O2)c2ccccc21 (stereo not shown)", "8 µg/mL"),
    ("CC(c1ccccc1)C1NC(=O)CNC(=O)C(CO)NC(=O)C(C(O)C2CNC(=N)N2C2OC(CO)C(O)C(O)C2O)NC(=O)C(C(O)C2CNC(=N)N2)NC(=O)C(Cc2ccc(OC3OC(CO)C(OC4OC(CO)C(O)C5OC(c6ccccc6)OC45)C(O)C3O)cc2)NC1=O (single isomer, unassigned) [Example 104b]", "8 µg/mL"),
]

Report MIC Coagulase Negative Staphylococcus (GC 4551) for each item below.
1. CCOc1cc(C2OCC3OC(OC4C(CO)OC(Oc5ccc(CC6NC(=O)C(C(C)c7ccccc7)NC(=O)CNC(=O)C(CO)NC(=O)C(C(O)C7CNC(=N)N7C7OC(CO)C(O)C(O)C7O)NC(=O)C(C(O)C7CNC(=N)N7)NC6=O)cc5)C(O)C4O)C(O)C(O)C3O2)ccc1[N+](=O)[O-] (stereo not shown)
2. CC(c1ccccc1)C1NC(=O)CNC(=O)C(CO)NC(=O)C(C(O)C2CNC(=N)N2C2OC(CO)C(O)C(O)C2O)NC(=O)C(C(O)C2CNC(=N)N2)NC(=O)C(Cc2ccc(OC3OC(CO)C(OC4OC5COC(CCc6ccccc6)OC5C(O)C4O)C(O)C3O)cc2)NC1=O (stereo not shown)

1: 16 µg/mL; 2: 2 µg/mL

* * *

System: Staphylococcus sp.
Test: In vitro antibacterial evaluation: minimum inhibitory concentration (MIC), broth dilution method
Format: cell-based
Conditions: Coagulase Negative Staphylococcus (GC 4547); broth dilution, 18 hours at 35° C.
Outcome measure: MIC Coagulase Negative Staphylococcus (GC 4547) (µg/mL)
Numbers only, in µg/mL.

# Compound, Value reported
rows = [
    ("CC(C)C(=O)OCC1OC(OC2C(CO)OC(Oc3ccc(CC4NC(=O)C(Cc5ccccc5)NC(=O)CNC(=O)C(CO)NC(=O)C(C(O)C5CNC(=N)N5C5OC(CO)C(O)C(O)C5O)NC(=O)C(C(O)C5CNC(=N)N5)NC4=O)cc3)C(O)C2O)C(O)C(O)C1O (centres unmarked) [Example 283a]", 64),
]

We next turn to a different compound, shown below.
So for CCC(C)C(=O)OC1C(CO)OC(OC2C(CO)OC(Oc3ccc(CC4NC(=O)C(C(C)c5ccccc5)NC(=O)CNC(=O)C(CO)NC(=O)C(C(O)C5CNC(=N)N5C5OC(CO)C(O)C(O)C5O)NC(=O)C(C(O)C5CNC(=N)N5)NC4=O)cc3)C(O)C2O)C(O)C1O (centres unmarked) [Example 278c] , the logged MIC Coagulase Negative Staphylococcus (GC 4547) turned out to be 4

* * *

Task for the reader: assign each of the following compounds its reported MIC Staphylococcus aureus (GC 1131).
Test system: Staphylococcus sp.
Assay: In vitro antibacterial evaluation: minimum inhibitory concentration (MIC), broth dilution method
Type: cell-based
Conditions: strain GC 1131
Source text: […]
One number for each entry, in µg/mL.

# Compound, Units of measure, MIC Staphylococcus aureus (GC 1131)
measured = [
    ("CC(C)=CCCC1OCC2OC(OC3C(CO)OC(Oc4ccc(CC5NC(=O)C(C(C)c6ccccc6)NC(=O)CNC(=O)C(CO)NC(=O)C(C(O)C6CNC(=N)N6C6OC(CO)C(O)C(O)C6O)NC(=O)C(C(O)C6CNC(=N)N6)NC5=O)cc4)C(O)C3O)C(O)C(O)C2O1 (stereo not shown)", "µg/mL", 8),
    ("Cc1ccc(CC2OCC3OC(OC4C(CO)OC(Oc5ccc(CC6NC(=O)C(C(C)c7ccccc7)NC(=O)CNC(=O)C(CO)NC(=O)C(C(O)C7CNC(=N)N7C7OC(CO)C(O)C(O)C7O)NC(=O)C(C(O)C7CNC(=N)N7)NC6=O)cc5)C(O)C4O)C(O)C(O)C3O2)cc1 (stereo not shown)", "µg/mL", 1),
]

We next turn to a different compound, shown below.
So for CC(c1ccccc1)C1NC(=O)CNC(=O)C(CO)NC(=O)C(C(O)C2CNC(=N)N2C2OC(CO)C(O)C(O)C2O)NC(=O)C(C(O)C2CNC(=N)N2)NC(=O)C(Cc2ccc(OC3OC(CO)C(OC4OC5COC6(OC5C(O)C4O)C(C)CCCC6C)C(O)C3O)cc2)NC1=O (stereo not shown) , the logged MIC Staphylococcus aureus (GC 1131) turned out to be 1

* * *

System: Staphylococcus sp.
Test: In vitro antibacterial evaluation: minimum inhibitory concentration (MIC), broth dilution method
Type: cell-based
Details: broth dilution, 18 hours at 35° C.
Task for the reader: assign each of the following molecules its reported MIC Staphylococcus aureus SMITH (GC 4536).
Answers are plain numbers, in µg/mL.

# Molecule, Measured target, Units of measure, Value reported
records = [
    ("CCCCCCC(=O)OCC1OC(OC2C(CO)OC(Oc3ccc(CC4NC(=O)C(C(C)c5ccccc5)NC(=O)CNC(=O)C(CO)NC(=O)C(C(O)C5CNC(=N)N5C5OC(CO)C(O)C(O)C5O)NC(=O)C(C(O)C5CNC(=N)N5)NC4=O)cc3)C(O)C2O)C(O)C(O)C1O (stereo not shown) [Example 97b]", "Staphylococcus sp.", "µg/mL", 0.5),
    ("CCCCCC(=O)OCC1OC(OC2C(CO)OC(Oc3ccc(CC4NC(=O)C(C(C)c5ccccc5)NC(=O)CNC(=O)C(CO)NC(=O)C(C(O)C5CNC(=N)N5C5OC(CO)C(O)C(O)C5O)NC(=O)C(C(O)C5CNC(=N)N5)NC4=O)cc3)C(O)C2O)C(O)C(O)C1O (stereo not shown) [Example 95b]", "Staphylococcus sp.", "µg/mL", 1),
]

We next turn to a different molecule, shown below.
So for CC(c1ccccc1)C1NC(=O)CNC(=O)C(CO)NC(=O)C(C(O)C2CNC(=N)N2C2OC(CO)C(O)C(O)C2O)NC(=O)C(C(O)C2CNC(=N)N2)NC(=O)C(Cc2ccc(OC3OC(CO)C(OC4OC(COC(=O)Cc5ccccc5)C(O)C(O)C4O)C(O)C3O)cc2)NC1=O (stereo not shown) [Example 98c] , the logged MIC Staphylococcus aureus SMITH (GC 4536) turned out to be 2
